Experiment: in vivo
Conditions: female, CD1/nude, mouse, 5 MBq (0.5 nmol), total radioactivity, Stomach
tissue uptake at 24 h by entry:
Report the figure in %ID/g without appending any unit label.

CC(C)C[C@H](NC(=O)[C@H](Cc1ccc(O)cc1)NC(=O)[C@@H](CCCNC(=N)N)NC(=O)[C@@H](CO)NC(=O)[C@H](Cc1ccccc1)NC(=O)[C@H](CC1CCCCC1)NC(=O)[C@H](CC(=O)O)NC(=O)[C@H](CCCCNC(=O)CCOCCOCCOCCOCCNC(=O)CCCc1ccc(I)cc1)NC(=O)CN1CCN(CC(=O)O)CCN(CC(=O)O)CCN(CC(=O)O)CC1)C(=O)N[C@@H](Cc1c[nH]c2ccccc12)C(=O)N[C@@H](CO)C(N)=O [[^177Lu]Lu-uPAR-02, metal not drawn]    0.69

## Task What value of measured tissue uptake at 24 h is listed for CC(C)C[C@H](NC(=O)[C@H](Cc1ccc(O)cc1)NC(=O)[C@@H](CCCNC(=N)N)NC(=O)[C@@H](CO)NC(=O)[C@H](Cc1ccccc1)NC(=O)[C@H](CC1CCCCC1)NC(=O)[C@H](CC(=O)O)NC(=O)[C@H](CCCCNC(=O)CCOCCOCCOCCOCCNC(=O)c1ccc(CNC(=O)CCCc2ccc(I)cc2)cc1)NC(=O)CN1CCN(CC(=O)O)CCN(CC(=O)O)CCN(CC(=O)O)CC1)C(=O)N[C@@H](Cc1c[nH]c2ccccc12)C(=O)N[C@@H](CO)C(N)=O [[^177Lu]Lu-uPAR-03, metal not drawn] ?
## Result 1.8

* * *

Xenograft-to-liver ratio by entry:
Test system: HEK-uPAR xenograft-bearing nude mice
Assay: Biodistribution studies in HEK-uPAR xenograft-bearing nude mice
Conditions: 24 h p.i.; average ± SD, n=3 animals
// no unit, no text: just the number

# example entries with known answers
CC(C)C[C@H](NC(=O)[C@H](Cc1ccc(O)cc1)NC(=O)[C@@H](CCCNC(=N)N)NC(=O)[C@@H](CO)NC(=O)[C@H](Cc1ccccc1)NC(=O)[C@H](CC1CCCCC1)NC(=O)[C@H](CC(=O)O)NC(=O)[C@H](CCCCNC(=O)CCCc1ccc(I)cc1)NC(=O)CN1CCN(CC(=O)O)CCN(CC(=O)O)CCN(CC(=O)O)CC1)C(=O)N[C@@H](Cc1c[nH]c2ccccc12)C(=O)N[C@@H](CO)C(N)=O [[^177Lu]Lu-uPAR-01, metal not drawn]    3.3
CC(C)C[C@H](NC(=O)[C@H](Cc1ccc(O)cc1)NC(=O)[C@@H](CCCNC(=N)N)NC(=O)[C@@H](CO)NC(=O)[C@H](Cc1ccccc1)NC(=O)[C@H](CC1CCCCC1)NC(=O)[C@H](CC(=O)O)NC(=O)[C@H](CCCCNC(=O)CCCc1ccc(I)cc1)NC(=O)[C@@H](N)CCCCNC(=O)CN1CCN(CC(=O)O)CCN(CC(=O)O)CCN(CC(=O)O)CC1)C(=O)N[C@@H](Cc1c[nH]c2ccccc12)C(=O)N[C@@H](CO)C(N)=O [[^177Lu]Lu-uPAR-04, metal not drawn]    1.4
CC(C)C[C@H](NC(=O)[C@H](Cc1ccc(O)cc1)NC(=O)[C@@H](CCCNC(=N)N)NC(=O)[C@@H](CO)NC(=O)[C@H](Cc1ccccc1)NC(=O)[C@H](CC1CCCCC1)NC(=O)[C@H](CC(=O)O)NC(=O)CN1CCN(CC(=O)O)CCN(CC(=O)O)CCN(CC(=O)O)CC1)C(=O)N[C@@H](Cc1c[nH]c2ccccc12)C(=O)N[C@@H](CO)C(N)=O [[^177Lu]Lu-DOTA-AE105, metal not drawn, reference compound]    2.4

We next turn to a different compound, shown below.
## Task What value of measured Xenograft-to-liver ratio is listed for CC(C)C[C@H](NC(=O)[C@H](Cc1ccc(O)cc1)NC(=O)[C@@H](CCCNC(=N)N)NC(=O)[C@@H](CO)NC(=O)[C@H](Cc1ccccc1)NC(=O)[C@H](CC1CCCCC1)NC(=O)[C@H](CC(=O)O)NC(=O)CCOCCOCCOCCOCCNC(=O)[C@H](CCCCNC(=O)CCCc1ccc(I)cc1)NC(=O)CN1CCN(CC(=O)O)CCN(CC(=O)O)CCN(CC(=O)O)CC1)C(=O)N[C@@H](Cc1c[nH]c2ccccc12)C(=O)N[C@@H](CO)C(N)=O [[^177Lu]Lu-uPAR-05, metal not drawn] ?
## Result 2.9
